Property: Kd; scope: individual binders
- Target Or Test System: T1, recombinant human Trop-2-his protein (ACCESSION NO.: NP_002344.2, AA 1-274) (human, UniProt P09758 27-274)
- T1 construct: range 27-274; also called recombinant human Trop-2 protein; recombinant human Trop-2 extracellular domain; not shown: his tag
- T1 sequence (looked up): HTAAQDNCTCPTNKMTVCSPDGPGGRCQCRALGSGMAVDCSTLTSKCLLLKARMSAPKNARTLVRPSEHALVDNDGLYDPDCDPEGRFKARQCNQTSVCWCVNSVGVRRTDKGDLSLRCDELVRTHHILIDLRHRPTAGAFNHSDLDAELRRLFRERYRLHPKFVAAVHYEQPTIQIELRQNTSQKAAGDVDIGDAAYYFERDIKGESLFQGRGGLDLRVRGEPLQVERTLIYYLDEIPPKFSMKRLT
- Measurement Notes: BLI, antibody on AHC sensor, Trop-2-his 60 nM
Metric: Kd (nM)

binder="chimeric antibody ch23-12 (antibody, human IgG1, V domains shown) VH: QVQLQQPGAELVKPGASVKLSCKADGYIFTSYWMHWVKQRPGQGLEWIGEITPSDNYTSYNQKFKGKATLTVDKSSSTAYMQLSSLTSEDSAVYYCTRGHGNYVSFDYWGQGTTLTVSS VL: DIQMTQITSSLSASLGDRVTITCRASQDISNYLNWYQQKPDGTVKLLIYYTSRLHSGVPSRFSGSGSGTDYSLTISNLEQEDIATYFCQQGYTLPPYTFGGGTKLEIK" assay_value=0.715
binder="h23-12-19 (antibody, human IgG1, kappa, V domains shown) VH: QVQLVQSGAEVKKPGASVKVSCKASGYTFTSYWMHWVRQAPGQGLEWMGEITPSDNYTSYAQKFKGRVTITRDTSTSTAYMELSSLRSEDTAVYYCARGHGNYVSFDYWGQGTLVTVSS VL: DIQMTQSPSSLSASVGDRVTITCRASQDISNYLNWYQQKPGKAPKLLIYYTSSLHSGVPSRFSGSGSGTDFTLTISSLQPEDFATYFCQQGYTLPPYTFGQGTKLEIKR" assay_value=10
binder="h23-12-6 (antibody, human IgG1, kappa, V domains shown) VH: QVQLVQSGAEVKKPGASVKVSCKASGYTFTSYWMHWVRQAPGQGLEWMGEITPSDNYTSYNQKFKGRVTITRDTSTSTAYMELSSLRSEDTAVYYCARGEGNYVSFDYWGQGTLVTVSS VL: DIQMTQSPSSLSASVGDRVTITCRASQDISNYLNWYQQKPGKAPKLLIYYTSRLHSGVPSRFSGSGSGTDFTLTISSLQPEDFATYFCQQGYTLPPYTFGQGTKLEIKR" assay_value=0.298

Data credit: patent US20240092930A1
